Hi there, I'd appreciate the recorded Efficacy in % for every entry that follows.
test system: Venturia inaequalis; assay: Venturia test (apple)/protective; format: in vivo; settings: protective, application rate 100 g/ha, evaluation 10 days after inoculation, 0% = control, 100% = no infection
One number for each entry, in %.

Below: 3 compounds and their reported Efficacy in %.
compound	reading unit	quantitative result
CC(C)CC(C)C1CCCCC1NC(=O)c1cn(C)nc1C(F)F (stereo not drawn)	%	100
CC(C)CC(C)C1CCCCC1NC(=O)c1cn(C)nc1C(F)(F)F (stereo not drawn)	%	99
CC(C)CC(C)C1CCCCC1NC(=O)c1nccnc1Cl (stereo not drawn)	%	100

// input: 3 compounds below; output: Efficacy in % for each
1. Cc1nn(C)c(F)c1C(=O)NC1CCCCC1C(C)CC(C)C (stereo not drawn)
2. CC(C)CC(C)C1CCCCC1NC(=O)c1cn(C)cc1C(F)(F)F (stereo not drawn)
3. Cc1nc(C(F)F)c(C(=O)NC2CCCCC2C(C)CC(C)C)s1 (stereo not drawn)

Key:
100
90
98
